From: patent US11116757B2

# testSystem: DCN1-UBC12 interaction (Homo sapiens (Human), UniProt Q96GG9)
# Sequence (Q96GG9 60-248 limits assumed): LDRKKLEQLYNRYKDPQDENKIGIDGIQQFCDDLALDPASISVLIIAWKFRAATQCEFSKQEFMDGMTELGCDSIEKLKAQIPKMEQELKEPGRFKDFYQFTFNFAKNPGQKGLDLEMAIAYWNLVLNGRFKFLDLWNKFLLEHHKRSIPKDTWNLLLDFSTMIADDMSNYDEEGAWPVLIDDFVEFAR
# assayRemarks: biochemical
# Type: binding
# recordedConditions: read-out: TR-FRET IC50
Below, each entry is listed alongside its reported IC50.
quantityName: IC50

* CCCC(C)N1CCC(N(Cc2ccccc2)C(=O)Nc2ccccc2N2CCOCC2)CC1 (stereo not shown) | > 52.8 µM
* Cc1nc(NC(=O)NC2CCN(Cc3ccccc3)CC2)nn1C | > 16.3 µM
* O=C(Nc1cccc(-n2cccc2)c1)NC1CCN(Cc2ccccc2)CC1 | > 71.3 µM
* CCOc1ccc(C(=O)NCC(=O)N2CCC(c3nc4ccccc4s3)CC2)cc1 | > 67.6 µM

----------
Quick list: pIC50 per entry.
# testSystem: DCN1-UBC12 interaction (Homo sapiens (Human), UniProt Q96GG9)
# assayRemarks: biochemical
# Type: binding
# recordedConditions: read-out: TR-FRET IC50
pIC50: −log10 of the molar value.
quantityName: pIC50

• CCCC(C)N1CCC(N(Cc2ccccc2)C(=O)Nc2ccc(-c3ccc(C(=O)OC)cc3)cc2)CC1 (stereo not shown) = < 4.16
• FC(F)(F)c1cccc(CN2CCN(Cc3nc4ccccc4[nH]3)CC2)c1 = < 4.33
• C#CCCCN1CCC(N(Cc2ccccc2NC(=O)/C=C/C)C(=O)Nc2cccc(C(F)(F)F)c2)CC1 = < 4.00
• O=C(NC1CCN(Cc2cccc(F)c2)CC1)C(F)(F)F = < 4.01

----------
# testSystem: DCN1-UBC12 interaction (Homo sapiens (Human), UniProt Q96GG9)
# assayRemarks: biochemical
# Format: binding
# recordedConditions: read-out: TR-FRET IC50
Recorded IC50 by entry
quantityName: IC50

* O=C(NCc1cccc(C(F)(F)F)c1)C1CCN(Cc2ccccc2)CC1 | > 63.9 µM
* Cc1cc(C)cc(C(=O)N2CCCC(c3nc4ccccc4s3)C2)c1 (stereo not drawn) | > 67.6 µM
* CC1CN(Cc2ccccc2)CCC1N(C)C(=O)Nc1cccc2cnccc12 (stereo not drawn) | > 113 µM
* CCCC(C)N1CCC(N(Cc2ccccc2)C(=O)Nc2ccccc2I)CC1 (stereo not drawn) | > 72.4 µM
* O=C(Nc1ccc(Br)cc1Cl)NC1CCN(Cc2ccccc2)CC1 | > 67.6 µM
* CCOc1ccccc1NC(=O)N(Cc1ccc(C)o1)C1CCN(Cc2ccccc2)CC1 | > 67.6 µM
* C#CCCCN1CCC(N(Cc2ccccc2NC(=O)CC)C(=O)Nc2ccc(Cl)c(Cl)c2)CC1 [A200] | > 15 µM
* O=C(CN1CCN(c2cccc(Cl)c2)CC1)Nc1cccc(C(F)(F)F)c1 | > 54.3 µM
* COc1ccccc1NC(=O)N(CCCN1CCC(C)CC1)C1CCN(C(C)=O)CC1 | > 67.6 µM

----------
The following compounds are shown together with reported pIC50 values.
# testSystem: DCN1-UBC12 interaction (Homo sapiens (Human))
# assayRemarks: biochemical
# Assay type: binding
# recordedConditions: Table 4, commercial compounds; read-out: TR-FRET IC50
pIC50: −log10 of the molar value.
quantityName: pIC50

- COc1ccc(Cl)cc1NC(=O)C1CCN(C(=O)c2ccccc2F)CC1: < 4.17
- O=C(Nc1ccc(I)cc1)C1CCN(C(=O)c2ccco2)CC1: < 4.17
- COc1cccc(NC(=O)C2CCN(C(=O)c3cccc(F)c3)CC2)c1: < 4.17
- Cc1ccc(NC(=O)C2CCN(C(=O)c3ccccc3C)CC2)cc1C: < 4.17
- CCC1CN(C(=O)N2CCC(C(=O)Nc3cccc(Cl)c3)CC2)c2ccccc2O1 (centres unmarked): < 4.17
- O=C(Nc1cccc(Br)c1)C1CCN(C(=O)c2cccc(Cl)c2)CC1: 4.65
- Cc1ccc(C(=O)N2CCC(C(=O)Nc3ccc(Cl)c(C(F)(F)F)c3)CC2)cc1: < 4.17
- O=C(Nc1cccc(C(F)(F)F)c1)C1CCN(C(=O)Cc2ccccc2)CC1: < 4.18
